- experiment: Asymmetry factors
- Parameters: species or system rat
- condition set: out from CSFTFV at BCSFB2; calculated from Kp,uu,CSFCM
Listed below: AFout3, asymmetry factor values for each entry.
Form: value (number only, do not type unit).

Cc1nc2n(c(=O)c1CCN1CCC(c3noc4cc(F)ccc34)CC1)CCCC2O (stereo not shown) = 4.7
O=C1NC(=O)C(c2ccccc2)(c2ccccc2)N1 = 7.7
Cc1nc2n(c(=O)c1CCN1CCC(c3noc4cc(F)ccc34)CC1)CCCC2 = 1.5

# input Please supply the value of reported AFout3, asymmetry factor for the item CCN1CCC[C@H]1CNC(=O)c1c(O)c(Cl)cc(Cl)c1OC [Raclopride]
# output 1.9
